These data points were gathered from the RNAGym collection of RNA variant scans (doi:10.1021/acssynbio.7b00057).

B1: Pistol ribozyme (parent)
chain: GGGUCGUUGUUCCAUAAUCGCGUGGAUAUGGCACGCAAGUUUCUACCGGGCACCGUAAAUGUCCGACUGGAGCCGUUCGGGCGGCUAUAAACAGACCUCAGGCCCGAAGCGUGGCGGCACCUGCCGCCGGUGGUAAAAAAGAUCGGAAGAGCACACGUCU

variants of: B1; experiment: aptazyme ON/OFF ratio, guanine; higher = stronger switching; co-transcriptional cleavage with and without guanine

- variant-descriptor: "U7C U8A C12A C13A"
  aptazyme ON/OFF ratio: 1.34
- variant-descriptor: "U7A U8C G9A U10G U11C C12G C13G"
  aptazyme ON/OFF ratio: 1.09
- variant-descriptor: "U7G G9U U10G U11C"
  aptazyme ON/OFF ratio: 1.13
- variant-descriptor: "U7G U8C U10A U11A"
  aptazyme ON/OFF ratio: 2.71
- variant-descriptor: "U7C U8C U10G U11A C12U C13U"
  aptazyme ON/OFF ratio: 1.21
- variant-descriptor: "U8A G9U U10C U11A C12U C13A"
  aptazyme ON/OFF ratio: 1.26
- variant-descriptor: "G9C U11C C12A"
  aptazyme ON/OFF ratio: 1.25
- variant-descriptor: "G9U U10A U11G C12G C13G"
  aptazyme ON/OFF ratio: 1.11
- variant-descriptor: "U7G U8C G9C U10C U11G C12U C13U"
  aptazyme ON/OFF ratio: 1.08
- variant-descriptor: "U8A G9C U10G U11C C12A"
  aptazyme ON/OFF ratio: 1.18
- variant-descriptor: "U7A U8G G9C U11C C12U"
  aptazyme ON/OFF ratio: 1.49
